# credit: patent US20250041429A1

# targetOfAssay: BTK protein (Homo sapiens, UniProt Q06187)
# Construct: endogenous in cells; host or cells: TMD-8 cells
# Sequence (Q06187 whole entry): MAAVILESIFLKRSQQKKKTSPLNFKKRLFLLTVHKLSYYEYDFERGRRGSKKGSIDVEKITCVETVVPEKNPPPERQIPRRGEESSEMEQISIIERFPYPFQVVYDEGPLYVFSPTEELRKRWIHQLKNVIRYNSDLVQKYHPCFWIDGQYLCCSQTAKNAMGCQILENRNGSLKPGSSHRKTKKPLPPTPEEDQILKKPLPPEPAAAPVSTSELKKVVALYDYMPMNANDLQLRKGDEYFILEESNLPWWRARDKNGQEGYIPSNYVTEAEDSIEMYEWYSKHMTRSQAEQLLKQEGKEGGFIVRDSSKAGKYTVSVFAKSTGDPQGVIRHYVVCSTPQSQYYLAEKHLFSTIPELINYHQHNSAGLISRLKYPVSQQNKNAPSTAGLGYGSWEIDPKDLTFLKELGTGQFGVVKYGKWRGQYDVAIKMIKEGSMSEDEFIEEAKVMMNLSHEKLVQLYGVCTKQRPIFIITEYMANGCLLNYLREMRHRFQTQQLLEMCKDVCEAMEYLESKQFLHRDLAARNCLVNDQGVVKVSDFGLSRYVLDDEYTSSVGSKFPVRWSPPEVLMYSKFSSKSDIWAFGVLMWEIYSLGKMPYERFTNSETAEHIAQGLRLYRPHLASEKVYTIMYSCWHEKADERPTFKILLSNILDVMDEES
# assayInfo: Measurement of BTK protein degradation ability in TMD-8 cells (Western blotting)
# Format: cell-based
# protocolConditions: compound 100 nM, harvested after 24 hours
measurementLabel: BTK degradation (%) 100 nM
Please reply with the bare figure in % and do not write the unit itself.

>>> reportedvalue("Cc1c(NC(=O)N2CC(OC(C)C)C2)cc(F)cc1-c1ccnc(Nc2ccc(N3CCN(CC4CCN(c5ccc6c(c5)C(=O)N(C5CCC(=O)NC5=O)C6=O)CC4)CC3)cc2)n1 (centres unmarked) [Example 23]")
91.5

[in] For the molecule Cc1cc(-c2ccnc(Nc3ccc(N4CCC(C(=O)N5CCC(c6cccc(NC7CCC(=O)NC7=O)c6)CC5)CC4)cc3)n2)ccc1CNC(=O)N1CC(OC(C)C)C1 (centres unmarked) [Example 116] , give its reported BTK degradation (%) 100 nM.
[out] 96.5

[in] For the molecule Cc1cc(-c2ccnc(Nc3ccc(C4CCN(CC5CCN(c6ccc(NC7CCC(=O)NC7=O)cn6)CC5)CC4)cc3)n2)ccc1CNC(=O)N1CC(OC(C)C)C1 (centres unmarked) [Example 53] , give its reported BTK degradation (%) 100 nM.
[out] 99.3

[in] For the molecule Cc1cc(-c2ccnc(Nc3ccc(N4CCN(CC5CCN(c6ccc(N7CCC(=O)NC7=O)cc6F)CC5)CC4)cc3)n2)ccc1CNC(=O)c1cn(C(C)(C)C)nn1 [Example 73] , give its reported BTK degradation (%) 100 nM.
[out] 97.0

[in] For the molecule Cc1cc(-c2ccnc(Nc3ccc(N4CCC(CN5CCN(c6ccc7c(c6)C(=O)N(C6CCC(=O)NC6=O)C7=O)CC5)CC4)cc3)n2)ccc1CNC(=O)N1CC(OC(C)C)C1 (centres unmarked) [Example 111] , give its reported BTK degradation (%) 100 nM.
[out] 99.5

* * *

# targetOfAssay: BTK protein (Homo sapiens)
# Construct: endogenous in cells; host or cells: TMD-8 cells
# assayInfo: Measurement of BTK protein degradation ability in TMD-8 cells (Western blotting)
# Assay type: cell-based
# protocolConditions: compound 1 nM, harvested after 24 hours
measurementLabel: BTK degradation (%) 1 nM
Please reply with the bare figure in % and do not write the unit itself.

Here are 2 compounds together with their reported answers.
>>> reportedvalue("Cc1cc(-c2ccnc(Nc3ccc(N4CCC(C(=O)N5CCC(c6ccc(OC7CCC(=O)NC7=O)cc6)CC5)CC4)cc3)n2)ccc1CNC(=O)N1CC(OC(C)C)C1 (stereo not drawn)")
15.0
>>> reportedvalue("Cc1cc(-c2ccnc(Nc3ccc(N4CCN(CC5CCN(c6ccc(NC7CCC(=O)NC7=O)cn6)CC5)CC4)cc3)n2)ccc1CNC(=O)c1cnn(C(C)C)c1 (stereo not drawn)")
62.0

Field: next compound
[in] Enter recorded BTK degradation (%) 1 nM with BTK protein (Homo sapiens) for Cc1cc(CNC(=O)N2CC(OC(C)C)C2)cc(-c2ccnc(Nc3ccc(N4CCN(CC5CCN(c6ccc7c(c6)C(=O)N(C6CCC(=O)NC6=O)C7=O)CC5)CC4)cc3)n2)c1 (stereo not drawn) here.
[out] 18

* * *

Quick list: BTK degradation (%) 1 nM per entry.
# targetOfAssay: BTK protein (Homo sapiens)
# Construct: endogenous in cells; host or cells: TMD-8 cells
# assayInfo: Measurement of BTK protein degradation ability in TMD-8 cells (Western blotting)
# Format: cell-based
# protocolConditions: compound 1 nM, harvested after 24 hours
Please reply with the bare figure in % and do not write the unit itself.

>>> reportedvalue("Cc1cc(-c2ccnc(Nc3ccc(N4CCN(CC5CN(c6ccc7c(n6)CN(C6CCC(=O)NC6=O)C7=O)C5)CC4)cc3)n2)ccc1CNC(=O)N1CC(OC(C)C)C1 (stereo not drawn)")
63.5
>>> reportedvalue("Cc1c(NC(=O)N2CC(OC(C)C)C2)cc(F)cc1-c1ccnc(Nc2ccc(N3CCN(CC4CCN(c5ccc6c(n5)CN(C5CCC(=O)NC5=O)C6=O)CC4)CC3)cc2)n1 (stereo not drawn)")
15.5
>>> reportedvalue("Cc1cc(-c2ccnc(Nc3cnn(C4CCN(CC5CN(c6ccc7c(c6)C(=O)N(C6CCC(=O)NC6=O)C7=O)C5)CC4)c3)n2)ccc1CNC(=O)c1cnn(C(C)(C)C)c1 (stereo not drawn)")
72.5
>>> reportedvalue("Cc1cc(-c2ccnc(Nc3ccc(N4CCN(CC5CCN(C(=O)c6cccc(OC7CCC(=O)NC7=O)c6)CC5)CC4)cc3)n2)ccc1CNC(=O)N1CC(OC(C)C)C1 (stereo not drawn)")
19.0
>>> reportedvalue("Cc1cc(-c2ccnc(Nc3ccc(N4CCN(CC5CCN(C(=O)c6cccc(N7CCC(=O)NC7=O)c6)CC5)CC4)cc3)n2)ccc1CNC(=O)N1CC(OC(C)C)C1")
"−0.5"
>>> reportedvalue("Cc1cc(-c2ccnc(Nc3ccc(N4CCN(CC5CCN(c6ccc(N7CCC(=O)NC7=O)cc6)CC5)CC4)nc3)n2)ccc1CNC(=O)c1cn(C(C)(C)C)nn1")
57.5
>>> reportedvalue("Cc1cc(-c2ccnc(Nc3ccc(C4CCN(CC5CCN(c6ccc(OC7CCC(=O)NC7=O)cc6)CC5)CC4)cc3)n2)ccc1CNC(=O)c1cnn(C(C)C)c1 (stereo not drawn)")
23.0
>>> reportedvalue("Cc1cc(-c2ccnc(Nc3ccc(N4CCN(CC5CCN(c6ccc7c(c6)C(=O)N(C6CCC(=O)NC6=O)C7=O)CC5)CC4)nc3)n2)ccc1CNC(=O)N1CC(OC(C)C)C1 (stereo not drawn)")
37

[in] For the molecule Cc1cc(-c2ccnc(Nc3ccc(N4CCN(CC5CCN(c6cccc(NC7CCC(=O)NC7=O)c6)CC5)CC4)cc3)n2)ccc1CNC(=O)c1cnn(C(C)(C)C)c1 (stereo not drawn) , give its reported BTK degradation (%) 1 nM.
[out] 72.0

[in] For the molecule Cc1cc(-c2ccnc(Nc3ccc(N4CCN(CC5CN(c6ccc7c(c6)C(=O)N(C6CCC(=O)NC6=O)C7=O)C5)CC4)cc3)n2)ccc1CNC(=O)N1CC(OC(C)C)C1 (stereo not drawn) , give its reported BTK degradation (%) 1 nM.
[out] 60

[in] For the molecule Cc1cc(-c2ccnc(Nc3ccc(N4CCN(CC5CN(C(=O)c6cccc(NC7CCC(=O)NC7=O)c6)C5)CC4)cc3)n2)ccc1CNC(=O)c1cnn(C(C)C)c1 (stereo not drawn) , give its reported BTK degradation (%) 1 nM.
[out] 59.5

[in] For the molecule Cc1cc(-c2ccnc(Nc3ccc(N4CCN(CC5CN(C(=O)c6cccc(NC7CCC(=O)NC7=O)c6)C5)CC4)cc3)n2)ccc1CNC(=O)c1cn(C(C)(C)C)nn1 (stereo not drawn) , give its reported BTK degradation (%) 1 nM.
[out] 71.0

[in] For the molecule Cc1cc(-c2ccnc(Nc3ccc(N4CCC(CN5CCN(C(=O)c6cccc(NC7CCC(=O)NC7=O)c6)CC5)CC4)cc3)n2)ccc1CNC(=O)N1CC(OC(C)C)C1 (stereo not drawn) , give its reported BTK degradation (%) 1 nM.
[out] 59.0
